These entries and their values trace back to ChEMBL document CHEMBL4828735.

# Protocol Description: AUC(0 to t) in Sprague-Dawley rat at 15 mg/kg, ig measured upto 72 hrs by LC-MS/MS analysis
# Assay type: ADME, organism-based
# Design: route […], dose 15 mg/kg, time <=72
# Condition Context: in vivo, po
Readout Name: AUC(0-t) at 72 h (ng·h/mL)
The response must be a number in ng·h/mL with no trailing unit.

What the record says about `Cl.Cn1nccc1-c1ccc(C(=O)N[C@@H]2CNCC[C@H]2c2ccc(F)c(F)c2)c(F)c1` : AUC(0-t) at 72 h is 2280

###

# System Under Test: CYP2C19 (Homo sapiens, UniProt P33261)
# Sequence (P33261 whole entry): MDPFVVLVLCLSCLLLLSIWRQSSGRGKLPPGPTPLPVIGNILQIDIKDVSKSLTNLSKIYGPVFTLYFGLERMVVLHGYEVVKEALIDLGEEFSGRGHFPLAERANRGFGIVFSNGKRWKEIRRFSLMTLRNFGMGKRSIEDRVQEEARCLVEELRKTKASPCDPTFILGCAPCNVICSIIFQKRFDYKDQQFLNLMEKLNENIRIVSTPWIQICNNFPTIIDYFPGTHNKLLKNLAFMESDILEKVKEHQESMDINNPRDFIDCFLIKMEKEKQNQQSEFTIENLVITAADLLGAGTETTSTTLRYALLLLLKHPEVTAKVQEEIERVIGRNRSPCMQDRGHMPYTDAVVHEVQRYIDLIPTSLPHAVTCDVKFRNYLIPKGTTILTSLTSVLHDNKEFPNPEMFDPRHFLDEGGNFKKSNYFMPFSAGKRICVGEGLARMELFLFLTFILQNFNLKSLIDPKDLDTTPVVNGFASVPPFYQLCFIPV
# Protocol Description: Inhibition of CYP2C19 (unknown origin) at 100 uM
# Format: ADME
Readout Name: inhibition at 100 µM (%)
The response must be a number in % with no trailing unit.

What the record says about `Cl.Cn1nccc1-c1ccc(C(=O)N[C@@H]2CNCC[C@H]2c2ccc(F)c(F)c2)c(F)c1` : inhibition at 100 µM is 65

###

The following compounds are shown together with reported IC50 values.
# System: 786-0
# Protocol Description: Antiproliferative activity against human 786-0 cells assessed as inhibition of cell growth incubated for 72 hrs by SRB assay
# Assay type: functional, cell-based
# Condition Context: 786-0, 72 h
The response must be a number in µM with no trailing unit.

{"Compound Structure String": "CCn1nccc1-c1ccc(C(=O)N[C@@H]2CNCC[C@H]2c2ccc(F)c(F)c2)c(F)c1", "System Under Test": "786-0", "Unit Descriptor": "µM", "Readout Number": 5.2}

What the record says about `Cn1ncc(Br)c1-c1cc(F)c(C(=O)N[C@@H]2CNCC[C@H]2c2ccc(F)c(F)c2)c(F)c1` : IC50 is 3.56

What the record says about `Cn1nccc1-c1ccc(C(=O)N[C@@H]2CNCC[C@H]2c2cc(F)cc(F)c2)c(F)c1` : IC50 is 2.22

What the record says about `Cn1ncc(Cl)c1-c1cc(F)c(C(=O)N[C@@H]2CNCC[C@H]2c2ccc(F)c(F)c2)c(F)c1` : IC50 is 4.28

###

# System Under Test: Serine/threonine-protein kinase Chk1 (Homo sapiens)
# Sequence (O14757 whole entry): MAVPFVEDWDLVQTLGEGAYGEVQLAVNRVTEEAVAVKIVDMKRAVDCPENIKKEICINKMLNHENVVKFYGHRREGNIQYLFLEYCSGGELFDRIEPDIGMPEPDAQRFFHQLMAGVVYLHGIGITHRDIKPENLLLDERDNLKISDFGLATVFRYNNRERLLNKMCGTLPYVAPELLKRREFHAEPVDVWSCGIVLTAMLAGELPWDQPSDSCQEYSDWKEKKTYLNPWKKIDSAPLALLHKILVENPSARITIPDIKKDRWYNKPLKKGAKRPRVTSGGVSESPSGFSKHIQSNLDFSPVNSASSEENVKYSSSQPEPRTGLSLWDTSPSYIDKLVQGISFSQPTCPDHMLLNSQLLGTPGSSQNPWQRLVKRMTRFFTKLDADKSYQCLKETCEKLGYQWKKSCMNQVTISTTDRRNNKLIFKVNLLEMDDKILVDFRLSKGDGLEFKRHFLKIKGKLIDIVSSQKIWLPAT
Readout Name: IC50

What the record says about `Cl.Cn1nccc1-c1ccc(C(=O)N[C@@H]2CNCC[C@H]2c2ccc(F)c(F)c2)c(F)c1` : IC50 is > 10 µM

###

# System Under Test: Mitogen-activated protein kinase 9 (Homo sapiens)
# Sequence (P45984 whole entry): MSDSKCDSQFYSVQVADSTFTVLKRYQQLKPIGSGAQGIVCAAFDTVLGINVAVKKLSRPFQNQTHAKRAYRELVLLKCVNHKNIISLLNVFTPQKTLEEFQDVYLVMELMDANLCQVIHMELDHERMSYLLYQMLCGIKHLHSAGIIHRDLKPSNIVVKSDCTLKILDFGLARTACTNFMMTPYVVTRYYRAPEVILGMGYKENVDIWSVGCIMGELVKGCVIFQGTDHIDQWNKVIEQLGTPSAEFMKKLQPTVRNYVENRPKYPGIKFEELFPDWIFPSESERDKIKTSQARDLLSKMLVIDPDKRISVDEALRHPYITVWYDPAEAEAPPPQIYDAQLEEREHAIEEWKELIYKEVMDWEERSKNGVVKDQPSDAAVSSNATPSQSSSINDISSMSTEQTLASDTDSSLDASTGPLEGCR
# Protocol Description: Inhibition of JNK2 (unknown origin)
pIC50: −log10 of the molar value.
Readout Name: pIC50

What the record says about `Cl.Cn1nccc1-c1ccc(C(=O)N[C@@H]2CNCC[C@H]2c2ccc(F)c(F)c2)c(F)c1` : pIC50 is < 5.00

###

The following molecules are shown together with reported pIC50 values.
# Tested on: HT-29
# Protocol Description: Antiproliferative activity against human HT-29 cells assessed as inhibition of cell growth incubated for 72 hrs by SRB method
# Type: functional, cell-based
# Condition Context: HT-29, 72 h
pIC50 here is simply -log10 of the concentration when that concentration is written in mol/L.

{"Compound Structure String": "Cl.Cn1nccc1-c1ccc(C(=O)N[C@@H]2CNCC[C@H]2c2ccc(F)c(F)c2)c(F)c1", "pIC50": 4.69}

Consider the additional molecule presented here.
HT-29 data for `NC1(C(=O)N[C@@H](CCO)c2ccc(Cl)cc2)CCN(c2nc[nH]c3nccc2-3)CC1` ; its pIC50: 4.43

###

# System Under Test: Cytochrome P450 3A5 (Homo sapiens, UniProt P20815)
# Sequence (P20815 whole entry): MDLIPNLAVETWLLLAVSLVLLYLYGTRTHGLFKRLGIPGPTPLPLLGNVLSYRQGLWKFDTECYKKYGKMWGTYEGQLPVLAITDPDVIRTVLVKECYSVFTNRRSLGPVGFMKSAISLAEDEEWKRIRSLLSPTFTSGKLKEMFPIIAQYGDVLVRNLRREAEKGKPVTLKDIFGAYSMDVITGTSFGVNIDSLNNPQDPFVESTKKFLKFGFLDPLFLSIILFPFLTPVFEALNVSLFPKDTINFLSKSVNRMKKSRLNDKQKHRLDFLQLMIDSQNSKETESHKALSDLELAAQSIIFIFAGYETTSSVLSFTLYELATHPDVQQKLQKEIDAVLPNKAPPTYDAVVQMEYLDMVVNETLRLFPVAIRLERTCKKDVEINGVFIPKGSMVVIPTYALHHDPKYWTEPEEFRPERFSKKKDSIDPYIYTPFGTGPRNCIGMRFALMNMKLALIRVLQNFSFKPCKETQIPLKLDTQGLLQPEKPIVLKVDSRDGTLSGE
pIC50: −log10 of the molar value.
Readout Name: pIC50

Cytochrome P450 3A5 (Homo sapiens, UniProt P20815) data for `Cl.Cn1nccc1-c1ccc(C(=O)N[C@@H]2CNCC[C@H]2c2ccc(F)c(F)c2)c(F)c1` ; its pIC50: < 4.00

###

# Protocol Description: Tmax in Sprague-Dawley rat at 15 mg/kg, ig measured upto 72 hrs by LC-MS/MS analysis
# Format: ADME, organism-based
# Condition Context: in vivo, po
Readout Name: Tmax (h)
The response must be a number in h with no trailing unit.

What the record says about `Cl.Cn1nccc1-c1ccc(C(=O)N[C@@H]2CNCC[C@H]2c2ccc(F)c(F)c2)c(F)c1` : Tmax is 1.67

###

# Protocol Description: Half life in Sprague-Dawley rat at 2 mg/kg, iv measured upto 24 hrs by LC-MS/MS analysis
# Format: ADME, organism-based
# Condition Context: in vivo
Readout Name: half-life
State the value with its unit after it.

What the record says about `Cl.Cn1nccc1-c1ccc(C(=O)N[C@@H]2CNCC[C@H]2c2ccc(F)c(F)c2)c(F)c1` : half-life is 6.24 h

###

# Protocol Description: Half life in Beagle dog at 20 mg/kg, ig measured upto 96 hrs by LC-MS/MS analysis
# Assay type: ADME, organism-based, Canis lupus familiaris
# Condition Context: in vivo, po
Readout Name: half-life
State the value with its unit after it.

What the record says about `Cl.Cn1nccc1-c1ccc(C(=O)N[C@@H]2CNCC[C@H]2c2ccc(F)c(F)c2)c(F)c1` : half-life is 16.7 h

###

# System Under Test: Tyrosine-protein kinase JAK2 (Homo sapiens)
# Sequence (O60674 whole entry): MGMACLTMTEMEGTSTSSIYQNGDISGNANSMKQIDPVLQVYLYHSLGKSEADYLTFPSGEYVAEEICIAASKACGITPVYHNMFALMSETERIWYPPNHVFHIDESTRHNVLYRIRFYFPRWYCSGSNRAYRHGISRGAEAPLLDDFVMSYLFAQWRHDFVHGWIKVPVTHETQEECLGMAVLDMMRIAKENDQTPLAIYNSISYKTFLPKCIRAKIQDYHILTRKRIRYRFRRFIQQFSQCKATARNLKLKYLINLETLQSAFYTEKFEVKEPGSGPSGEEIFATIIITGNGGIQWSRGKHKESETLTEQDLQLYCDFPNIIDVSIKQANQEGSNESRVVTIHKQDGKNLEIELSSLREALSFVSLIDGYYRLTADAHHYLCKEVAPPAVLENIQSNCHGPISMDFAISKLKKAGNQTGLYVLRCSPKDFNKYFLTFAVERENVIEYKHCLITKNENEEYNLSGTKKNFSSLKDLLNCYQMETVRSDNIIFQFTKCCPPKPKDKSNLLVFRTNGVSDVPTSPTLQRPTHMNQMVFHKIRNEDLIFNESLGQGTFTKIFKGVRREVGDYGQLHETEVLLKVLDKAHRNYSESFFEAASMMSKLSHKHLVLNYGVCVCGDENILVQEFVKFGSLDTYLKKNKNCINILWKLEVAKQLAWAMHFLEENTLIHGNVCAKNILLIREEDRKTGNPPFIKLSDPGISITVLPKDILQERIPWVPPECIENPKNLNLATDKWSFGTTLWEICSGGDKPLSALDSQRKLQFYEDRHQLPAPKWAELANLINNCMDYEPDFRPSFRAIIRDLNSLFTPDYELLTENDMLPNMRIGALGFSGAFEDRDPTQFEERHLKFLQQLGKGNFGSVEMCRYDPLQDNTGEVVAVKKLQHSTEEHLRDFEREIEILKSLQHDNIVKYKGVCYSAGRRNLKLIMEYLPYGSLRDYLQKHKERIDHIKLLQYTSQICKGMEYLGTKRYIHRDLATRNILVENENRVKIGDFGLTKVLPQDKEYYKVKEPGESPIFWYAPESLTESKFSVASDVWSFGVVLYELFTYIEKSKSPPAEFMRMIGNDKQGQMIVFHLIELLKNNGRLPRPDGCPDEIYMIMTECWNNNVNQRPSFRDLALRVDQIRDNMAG
pIC50: −log10 of the molar value.
Readout Name: pIC50

Tyrosine-protein kinase JAK2 (Homo sapiens) data for `Cl.Cn1nccc1-c1ccc(C(=O)N[C@@H]2CNCC[C@H]2c2ccc(F)c(F)c2)c(F)c1` ; its pIC50: < 5.00

###

# Protocol Description: Microsomal stability in mouse liver microsomes assessed as intrinsic clearance at 50 uM preincubated for 5 mins with NADPH followed by compound addition and measured upto 60 mins by LC-MS/MS analysis
# Type: ADME, Microsome
# Condition Context: read-out: CLH
Readout Name: microsomal CLint at 50 µM

What the record says about `Cl.Cn1nccc1-c1ccc(C(=O)N[C@@H]2CNCC[C@H]2c2ccc(F)c(F)c2)c(F)c1` : microsomal CLint at 50 µM is 3.4 µL/min/mg

###

# Protocol Description: AUC(0 to infinity) in Beagle dog at 20 mg/kg, ig measured upto 96 hrs by LC-MS/MS analysis
# Format: ADME, organism-based, Canis lupus familiaris
# Design: route […], dose 20 mg/kg, time <=96
# Condition Context: in vivo, po
Readout Name: AUC(0-inf) (ng·h/mL)
The response must be a number in ng·h/mL with no trailing unit.

What the record says about `Cl.Cn1nccc1-c1ccc(C(=O)N[C@@H]2CNCC[C@H]2c2ccc(F)c(F)c2)c(F)c1` : AUC(0-inf) is 36300

###

# System Under Test: Protein kinase C eta type (Homo sapiens, UniProt P24723)
# Sequence (P24723 whole entry): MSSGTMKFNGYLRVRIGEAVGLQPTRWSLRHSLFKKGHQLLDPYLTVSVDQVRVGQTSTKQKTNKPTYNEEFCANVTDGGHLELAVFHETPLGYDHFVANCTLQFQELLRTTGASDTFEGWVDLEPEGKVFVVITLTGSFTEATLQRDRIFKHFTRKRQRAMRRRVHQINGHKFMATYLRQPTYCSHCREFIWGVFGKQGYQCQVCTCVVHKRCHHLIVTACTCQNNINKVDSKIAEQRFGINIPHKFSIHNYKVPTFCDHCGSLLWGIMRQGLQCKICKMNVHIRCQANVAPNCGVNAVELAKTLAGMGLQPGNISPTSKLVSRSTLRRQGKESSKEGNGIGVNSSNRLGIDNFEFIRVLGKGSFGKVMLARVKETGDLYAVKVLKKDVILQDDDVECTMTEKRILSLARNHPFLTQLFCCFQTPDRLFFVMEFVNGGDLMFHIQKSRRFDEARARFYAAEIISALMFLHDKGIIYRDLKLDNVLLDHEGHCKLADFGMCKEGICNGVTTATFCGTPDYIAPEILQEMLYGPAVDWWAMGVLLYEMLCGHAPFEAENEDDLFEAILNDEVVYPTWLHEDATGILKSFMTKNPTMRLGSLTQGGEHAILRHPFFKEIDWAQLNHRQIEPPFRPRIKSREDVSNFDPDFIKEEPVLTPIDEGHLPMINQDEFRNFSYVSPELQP
pIC50: −log10 of the molar value.
Readout Name: pIC50

Protein kinase C eta type (Homo sapiens, UniProt P24723) data for `Cl.Cn1nccc1-c1ccc(C(=O)N[C@@H]2CNCC[C@H]2c2ccc(F)c(F)c2)c(F)c1` ; its pIC50: < 5.70

###

# Protocol Description: Microsomal stability in rat liver microsomes assessed as intrinsic clearance at 50 uM preincubated for 5 mins with NADPH followed by compound addition and measured upto 60 mins by LC-MS/MS analysis
# Format: ADME, Microsome
# Condition Context: read-out: CLH
Readout Name: microsomal CLint at 50 µM (µL/min/mg)
The response must be a number in µL/min/mg with no trailing unit.

What the record says about `Cl.Cn1nccc1-c1ccc(C(=O)N[C@@H]2CNCC[C@H]2c2ccc(F)c(F)c2)c(F)c1` : microsomal CLint at 50 µM is 20

###

# System Under Test: RAC-alpha serine/threonine-protein kinase (Homo sapiens)
# Sequence (P31749 whole entry): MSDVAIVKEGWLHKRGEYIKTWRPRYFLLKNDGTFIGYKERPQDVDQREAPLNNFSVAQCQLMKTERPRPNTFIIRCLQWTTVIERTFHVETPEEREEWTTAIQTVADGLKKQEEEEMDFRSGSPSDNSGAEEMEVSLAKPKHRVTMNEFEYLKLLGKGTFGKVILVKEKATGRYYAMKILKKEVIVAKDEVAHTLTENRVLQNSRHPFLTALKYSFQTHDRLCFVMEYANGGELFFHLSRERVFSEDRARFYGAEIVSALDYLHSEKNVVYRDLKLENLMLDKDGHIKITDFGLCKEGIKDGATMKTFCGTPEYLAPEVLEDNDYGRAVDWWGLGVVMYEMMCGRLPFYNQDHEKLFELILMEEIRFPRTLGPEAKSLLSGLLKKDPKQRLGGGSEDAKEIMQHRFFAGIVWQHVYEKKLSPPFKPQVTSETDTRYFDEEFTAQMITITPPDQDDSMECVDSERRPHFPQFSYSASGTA
With a cut-off of 100 nM, any IC50 strictly below it is called criterion met; any IC50 meeting it or above is called criterion not met.

Before answering, review these 5 worked examples.
{"Compound Structure String": "Cn1ncc(Cl)c1-c1cc(F)c(C(=O)N[C@@H]2CNCC[C@H]2c2ccc(F)c(F)c2)cc1F", "Label Class": "criterion met"}
{"Compound Structure String": "Cn1ncc(Br)c1-c1cc(F)c(C(=O)N[C@@H]2CNCC[C@H]2c2ccc(F)c(F)c2)c(F)c1", "Label Class": "criterion met"}
{"Compound Structure String": "Cn1nccc1-c1cc(F)c(C(=O)N[C@@H]2CNCC[C@H]2c2ccc(F)cc2)c(F)c1", "Label Class": "criterion not met"}
{"Compound Structure String": "Cn1ncc(Br)c1-c1cc(F)c(C(=O)N[C@@H]2CNCC[C@H]2c2ccc(F)c(F)c2)c(Cl)c1", "Label Class": "criterion not met"}
{"Compound Structure String": "Cn1nccc1-c1ccc(C(=O)N[C@@H]2CNCC[C@H]2c2ccc(F)c(F)c2)cc1F", "Label Class": "criterion met"}

Criterion: IC50 strictly below 100 nM. Is it met by `Cl.Cn1nccc1-c1ccc(C(=O)N[C@@H]2CNCC[C@H]2c2ccc(F)c(F)c2)c(F)c1` ? criterion met

Criterion: IC50 strictly below 100 nM. Is it met by `Cn1ncc(Cl)c1-c1cc(F)c(C(=O)N[C@@H]2CNCC[C@H]2c2ccc(F)c(F)c2)c(Cl)c1` ? criterion not met
